From: paper PMC10786891

Target: T1, EsCas13d, nuclease-dead (Eubacterium siraeum, UniProt B0MS50, R295A;H300A;R849A;H854A)
T1 sequence: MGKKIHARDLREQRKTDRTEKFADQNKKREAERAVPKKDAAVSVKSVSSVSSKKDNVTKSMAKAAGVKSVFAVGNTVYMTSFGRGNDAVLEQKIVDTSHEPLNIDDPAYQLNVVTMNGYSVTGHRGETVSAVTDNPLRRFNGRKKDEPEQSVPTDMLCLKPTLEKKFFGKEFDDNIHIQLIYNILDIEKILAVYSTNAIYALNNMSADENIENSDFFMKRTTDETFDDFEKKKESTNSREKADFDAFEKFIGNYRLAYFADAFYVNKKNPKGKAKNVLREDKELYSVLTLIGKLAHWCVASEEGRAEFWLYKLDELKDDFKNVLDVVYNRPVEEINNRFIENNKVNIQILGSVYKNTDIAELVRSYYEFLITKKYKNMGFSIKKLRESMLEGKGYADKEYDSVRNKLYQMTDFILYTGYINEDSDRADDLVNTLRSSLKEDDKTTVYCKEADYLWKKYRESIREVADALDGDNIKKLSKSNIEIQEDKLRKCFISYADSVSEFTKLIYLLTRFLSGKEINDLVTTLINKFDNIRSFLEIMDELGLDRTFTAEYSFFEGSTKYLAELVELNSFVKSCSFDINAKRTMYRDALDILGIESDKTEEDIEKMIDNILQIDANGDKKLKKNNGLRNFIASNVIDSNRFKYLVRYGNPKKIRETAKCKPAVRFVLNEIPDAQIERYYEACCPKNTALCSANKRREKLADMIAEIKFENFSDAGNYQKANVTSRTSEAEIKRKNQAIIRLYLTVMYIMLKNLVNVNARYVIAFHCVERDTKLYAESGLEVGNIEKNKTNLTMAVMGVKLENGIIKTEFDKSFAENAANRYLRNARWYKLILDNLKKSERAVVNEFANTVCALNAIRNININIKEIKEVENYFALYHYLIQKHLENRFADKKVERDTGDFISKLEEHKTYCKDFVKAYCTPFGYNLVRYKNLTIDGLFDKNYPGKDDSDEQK
Experiment: crRNA (strand 1, pre-loaded); Mg2+; 40 mM Tris-HCl pH 7.5, 150 mM NaCl, 6 mM MgCl2, 1 mM DTT, 0.1% Tween-20, 0.2 mg/ml BSA; 25 C; 10 min per concentration, then washed
Settings: tags: His6-TwinStrep-SUMO cleaved; N-terminal SNAP kept (SNAP-Surface 488); label: 3' end held by stalled T7 RNA polymerase
measuredQuantity: pKd
// field semantics: pKd = negative decimal log of concentration (mol/L)

Q: Can you look up the measured pKd of target 1 MT 5'PFS AGA 3'PFS CCG (mixed) RNA 1: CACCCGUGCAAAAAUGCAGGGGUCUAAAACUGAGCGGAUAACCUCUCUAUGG RNA 2: GGGAAUGGAUCCACAUCUACGAAUUCAGACCAUAGAGAGGUUAUCCGCUCACCGAGAUCGGAAGAGCACACGU for me?
Result: 7.43

Q: # repeat for target 3 insA 3' of 10,insU 3' of 6 (mixed) RNA 1: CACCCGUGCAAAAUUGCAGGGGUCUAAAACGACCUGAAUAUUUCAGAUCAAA RNA 2: GGGAAUGGAUCCACAUCUACGAAUUCGUUUUUGAUCUGAAAUAAUUCUAGGUCUGCAGAUCGGAAGAGCACACGU
Result: 7.10

Q: # repeat for target 1 G13A,A14C (mixed) RNA 1: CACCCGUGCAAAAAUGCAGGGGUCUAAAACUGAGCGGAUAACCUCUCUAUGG RNA 2: GGGAAUGGAUCCACAUCUACGAAUUCGUACCAUAGAGCAGUUAUCCGCUCACCGAGAUCGGAAGAGCACACGU
Result: 7.92

Q: # repeat for target 1 insA 3' of 17,insC 3' of 3 (mixed) RNA 1: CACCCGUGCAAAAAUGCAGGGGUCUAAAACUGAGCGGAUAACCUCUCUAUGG RNA 2: GGGAAUGGAUCCACAUCUACGAAUUCGUACCAUAGAAGAGGUUAUCCGCUCCACCGAGAUCGGAAGAGCACACGU
Result: 7.83
